- target-desc: T1, c-erbB-2 ECD with a Ser-Gly-His6 C-terminal fusion (UniProt P04626 23-652)
- T1 construct: extracellular domain; Expressed from CHO cells, IMAC purified; coupled to a CM5 chip, coated on plates, or biotinylated with NHS-LC-biotin; also called c-erbB-2 extracellular domain; biotinylated c-erbB-2 ECD
- assay-comment: SPR BIAcore
property: Kd
Please answer using the number first and the unit second.

# annotated cases, reported Kd shown
binder | Kd
C6ML3-8 (scFv) scFv: QVQLLQSGAELKKPGESLKISCKGSGYSFTSYWIAWVRQMPGKGLEYMGLIYPGDSDTKYSPSFQGQVTISVDKSVSTAYLQWSSLKPSDSAVYFCARHDVGYCSSSNCAKWPEYFQHWGQGTLVTVSSGGGGSGGGGSGGGGSQSVLTQPPSVSAAPGQKVTISCSGSSSNIGNNYVSWYQQLPGTAPKLLIYGHTNRPAGVPDRFSGSKSGTSASLAISGFRSEDEADYYCAAWDHLRWGWVFGGGTKLTVLG | 2.6 nM
C6ML3-2 (scFv) scFv: QVQLLQSGAELKKPGESLKISCKGSGYSFTSYWIAWVRQMPGKGLEYMGLIYPGDSDTKYSPSFQGQVTISVDKSVSTAYLQWSSLKPSDSAVYFCARHDVGYCSSSNCAKWPEYFQHWGQGTLVTVSSGGGGSGGGGSGGGGSQSVLTQPPSVSAAPGQKVTISCSGSSSNIGNNYVSWYQQLPGTAPKLLIYGHTNRPAGVPDRFSGSKSGTSASLAISGFRSEDEADYYCAAWDHSLSGWVFGGGTKLTVLG | 2.8 nM

Okay, next one:
// fetch Kd given entry C6ML3-15 (scFv, also called C6M13-15) scFv: QVQLLQSGAELKKPGESLKISCKGSGYSFTSYWIAWVRQMPGKGLEYMGLIYPGDSDTKYSPSFQGQVTISVDKSVSTAYLQWSSLKPSDSAVYFCARHDVGYCSSSNCAKWPEYFQHWGQGTLVTVSSGGGGSGGGGSGGGGSQSVLTQPPSVSAAPGQKVTISCSGSSSNIGNNYVSWYQQLPGTAPKLLIYGHTNRPAGVPDRFSGSKSGTSASLAISGFRSEDEADYYCAAWDRPLWGWVFGGGTKLTVLG
2.2 nM
